- tested-on: UniProt:P03372
- Sequence (P03372 whole entry): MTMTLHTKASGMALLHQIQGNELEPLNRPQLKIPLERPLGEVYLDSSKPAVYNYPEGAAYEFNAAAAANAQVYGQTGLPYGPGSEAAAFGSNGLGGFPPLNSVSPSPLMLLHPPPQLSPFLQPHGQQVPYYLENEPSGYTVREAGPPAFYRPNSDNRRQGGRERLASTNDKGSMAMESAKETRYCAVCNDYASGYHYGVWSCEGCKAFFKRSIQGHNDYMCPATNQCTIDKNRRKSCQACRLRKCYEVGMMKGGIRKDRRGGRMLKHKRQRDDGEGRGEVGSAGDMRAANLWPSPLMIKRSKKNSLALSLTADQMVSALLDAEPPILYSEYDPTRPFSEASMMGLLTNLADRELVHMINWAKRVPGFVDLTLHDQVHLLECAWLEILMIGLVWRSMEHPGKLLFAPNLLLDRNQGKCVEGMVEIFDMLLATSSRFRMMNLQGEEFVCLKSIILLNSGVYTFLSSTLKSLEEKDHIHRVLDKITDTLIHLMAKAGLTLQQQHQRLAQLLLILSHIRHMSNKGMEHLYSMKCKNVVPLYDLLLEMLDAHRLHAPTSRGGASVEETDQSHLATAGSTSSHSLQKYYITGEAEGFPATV
- assay-procedure: Antagonist activity at ERalpha (unknown origin) expressed in human HepG2 cells assessed as inhibition of transcriptional activation after 24 hrs by ERE-luciferase reporter gene assay relative to 17beta-estradiol
- Format: cell-based
measured-attribute: Efficacy (%)
Supply the numeric figure in %, leaving out any unit text.

Example entries begin here.
> print(dat)
                           structure.string       tested.on  unit.symbol  observed.result
1  Oc1ccc(/C(=N\c2cccc(Cl)c2)c2ccc(O)cc2O)cc1  UniProt:P03372            %              118
2    Cc1cccc(N=C(c2ccc(O)cc2)c2ccc(O)cc2)c1  UniProt:P03372            %               93
3   Cc1ccccc1/N=C(\c1ccc(O)cc1)c1ccc(O)cc1O  UniProt:P03372            %              100

Exercise: Which measured Efficacy value corresponds to Oc1ccc(C(=Nc2ccccc2Cl)c2ccc(O)cc2)cc1 ?
Key: 83

Exercise: Same lookup for Oc1ccc(C(=Nc2cccc(Cl)c2)c2ccc(O)cc2)cc1 , please.
Key: 109

Exercise: Same lookup for Oc1ccc(C(=Nc2ccc(Br)cc2)c2ccc(O)cc2)cc1 , please.
Key: 128

Exercise: Same lookup for Cc1ccccc1N=C(c1ccc(O)cc1)c1ccc(O)cc1 , please.
Key: 149

Exercise: Same lookup for Oc1ccc(/C(=N\c2ccc(Cl)cc2)c2ccc(O)cc2O)cc1 , please.
Key: 123
